# MEASUREMENT TARGET: UniProtKB P25779
# Sequence (P25779 123-467 limits assumed): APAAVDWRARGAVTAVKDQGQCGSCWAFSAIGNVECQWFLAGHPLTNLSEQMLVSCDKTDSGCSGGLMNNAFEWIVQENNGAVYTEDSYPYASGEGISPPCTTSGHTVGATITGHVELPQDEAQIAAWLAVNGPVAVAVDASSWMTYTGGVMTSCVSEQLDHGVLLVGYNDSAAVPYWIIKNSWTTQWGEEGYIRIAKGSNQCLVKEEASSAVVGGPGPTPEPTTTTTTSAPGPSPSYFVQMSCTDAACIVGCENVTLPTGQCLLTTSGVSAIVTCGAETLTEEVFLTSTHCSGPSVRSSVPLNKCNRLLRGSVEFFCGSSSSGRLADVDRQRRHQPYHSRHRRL
# TEST: Inhibition of Trypanosoma cruzi cruzain at 100 uM relative to control

{"RECORD SMILES": "COc1cc(/C=N/NC(=O)c2nc3ccccc3[nH]2)ccc1O", "inhibition [%]": 38}
{"RECORD SMILES": "O=C(N/N=C/c1cccs1)c1nc2ccccc2[nH]1", "inhibition [%]": 24}
{"RECORD SMILES": "O=C(N/N=C/c1ccc(O)cc1)c1nc2ccccc2[nH]1", "inhibition [%]": 65}
{"RECORD SMILES": "O=C(N/N=C/c1ccncc1)c1nc2ccccc2[nH]1", "inhibition [%]": 20}
{"RECORD SMILES": "O=C(N/N=C/c1ccccc1)c1nc2ccccc2[nH]1", "inhibition [%]": 25}
{"RECORD SMILES": "COc1cc(/C=N/NC(=O)c2nc3ccccc3[nH]2)cc(OC)c1OC", "inhibition [%]": 6}
{"RECORD SMILES": "O=C(N/N=C/c1ccc(O)c(O)c1)c1nc2ccccc2[nH]1", "inhibition [%]": 61}
{"RECORD SMILES": "O=C(N/N=C/c1ccc2c(c1)OCO2)c1nc2ccccc2[nH]1", "inhibition [%]": 47}
{"RECORD SMILES": "COc1ccc(/C=N/NC(=O)c2nc3ccccc3[nH]2)cc1", "inhibition [%]": 22}
{"RECORD SMILES": "COc1ccc(/C=N/NC(=O)c2nc3ccccc3[nH]2)cc1OC", "inhibition [%]": 35}
{"RECORD SMILES": "O=C(N/N=C/c1ccc([N+](=O)[O-])cc1)c1nc2ccccc2[nH]1", "inhibition [%]": 2}
{"RECORD SMILES": "O=C(N/N=C/c1ccc([N+](=O)[O-])o1)c1nc2ccccc2[nH]1", "inhibition [%]": 18}
{"RECORD SMILES": "O=C(N/N=C/c1ccc(F)cc1)c1nc2ccccc2[nH]1", "inhibition [%]": 17}
{"RECORD SMILES": "O=C(N/N=C/c1ccc(Cl)cc1)c1nc2ccccc2[nH]1", "inhibition [%]": 3}
{"RECORD SMILES": "O=C(N/N=C/c1ccccc1O)c1nc2ccccc2[nH]1", "inhibition [%]": 4}
{"RECORD SMILES": "O=C(N/N=C/c1ccc(Br)cc1)c1nc2ccccc2[nH]1", "inhibition [%]": 3}
{"RECORD SMILES": "COc1cc(/C=N/NC(=O)c2nc3ccccc3[nH]2)cc(OC)c1", "inhibition [%]": 50}
{"RECORD SMILES": "COc1cc(/C=N/NC(=O)c2nc3ccccc3[nH]2)cc([N+](=O)[O-])c1O", "inhibition [%]": 45}
{"RECORD SMILES": "COc1ccc(/C=N/NC(=O)c2nc3ccccc3[nH]2)cc1O", "inhibition [%]": 58}

----------
# Test system: Leishmania infantum
# TEST: Antiparasitic activity against Leishmania infantum promastigotes infected in mouse RAW264.7 cells measured after 48 hrs
# Assay type: functional, organism-based
Calls of active or inactive are those of the source. The calls are words filed in the database; no cut-off is given here.

{"RECORD SMILES": "O=C(N/N=C/c1ccc(F)cc1)c1nc2ccccc2[nH]1", "Activity": "inactive"}
{"RECORD SMILES": "COc1ccc(/C=N/NC(=O)c2nc3ccccc3[nH]2)cc1OC", "Activity": "inactive"}
{"RECORD SMILES": "O=C(N/N=C/c1cccs1)c1nc2ccccc2[nH]1", "Activity": "inactive"}

----------
# TEST: Selectivity index, ratio of LC50 for mouse peritoneal macrophage cells to IC50 for bloodstream trypomastigote form of Trypanosoma cruzi Y
# Type: toxicity
# CONDITIONS: peritoneal macrophages, read-out: Ratio LC50/IC50
Reported selectivity ratio is given for each of the following compounds.

{"RECORD SMILES": "COc1ccc(/C=N/NC(=O)c2nc3ccccc3[nH]2)cc1OC", "LIMIT SIGN": ">", "selectivity ratio": 3.1}
{"RECORD SMILES": "COc1ccc(/C=N/NC(=O)c2nc3ccccc3[nH]2)cc1O", "LIMIT SIGN": "=", "selectivity ratio": 1}
{"RECORD SMILES": "O=C(N/N=C/c1ccc(O)cc1)c1nc2ccccc2[nH]1", "LIMIT SIGN": ">", "selectivity ratio": 5.6}
{"RECORD SMILES": "O=C(N/N=C/c1ccc([N+](=O)[O-])o1)c1nc2ccccc2[nH]1", "LIMIT SIGN": ">", "selectivity ratio": 1.6}
{"RECORD SMILES": "O=C(N/N=C/c1ccc(O)c(O)c1)c1nc2ccccc2[nH]1", "LIMIT SIGN": "=", "selectivity ratio": 0.9}
{"RECORD SMILES": "O=C(Cn1ccnc1[N+](=O)[O-])NCc1ccccc1", "LIMIT SIGN": "=", "selectivity ratio": 113}

----------
# TEST: Cytotoxicity against mouse RAW264.7 cells measured after 48 hrs
# Type: toxicity, cell-based

{"RECORD SMILES": "O=C(N/N=C/c1ccc([N+](=O)[O-])cc1)c1nc2ccccc2[nH]1", "UNIT NAME": "µM", "CC50 at 48 h": 84.4}
{"RECORD SMILES": "COc1cc(/C=N/NC(=O)c2nc3ccccc3[nH]2)cc(OC)c1", "UNIT NAME": "µM", "CC50 at 48 h": 8.94}
{"RECORD SMILES": "O=C(N/N=C/c1ccccc1O)c1nc2ccccc2[nH]1", "UNIT NAME": "µM", "CC50 at 48 h": 29.2}

----------
molecules and their reported selectivity ratio
# TEST: Selectivity index, ratio of CC50 for mouse RAW264.7 cells to IC50 for Leishmania infantum promastigotes infected in mouse RAW264.7 cells
# Format: toxicity, cell-based
# CONDITIONS: read-out: Ratio CC50/IC50

{"RECORD SMILES": "O=C(N/N=C/c1ccccc1O)c1nc2ccccc2[nH]1", "selectivity ratio": 1.2}
{"RECORD SMILES": "COc1ccc(/C=N/NC(=O)c2nc3ccccc3[nH]2)cc1O", "selectivity ratio": 0.5}
{"RECORD SMILES": "CCCCCCCCCCCCCCCCOP(=O)([O-])OCC[N+](C)(C)C", "selectivity ratio": 5.6}
{"RECORD SMILES": "O=C(N/N=C/c1ccc(O)c(O)c1)c1nc2ccccc2[nH]1", "selectivity ratio": 0.2}
{"RECORD SMILES": "O=C(N/N=C/c1ccc([N+](=O)[O-])o1)c1nc2ccccc2[nH]1", "selectivity ratio": 0.9}

----------
# Tested on: Leishmania amazonensis
# TEST: Antiparasitic activity against Leishmania amazonensis amastigotes infected in mouse RAW264.7 cells measured after 48 hrs
# Format: functional, organism-based
# CONDITIONS: RAW264.7, 48 h
pIC50: −log10 of the molar value.

{"RECORD SMILES": "O=C(N/N=C/c1ccccc1O)c1nc2ccccc2[nH]1", "LIMIT SIGN": "=", "pIC50": 3.98}
{"RECORD SMILES": "O=C(N/N=C/c1ccccc1)c1nc2ccccc2[nH]1", "LIMIT SIGN": "=", "pIC50": 3.72}
{"RECORD SMILES": "O=C(N/N=C/c1ccc([N+](=O)[O-])o1)c1nc2ccccc2[nH]1", "LIMIT SIGN": "=", "pIC50": 4.74}
{"RECORD SMILES": "O=C(N/N=C/c1ccc(F)cc1)c1nc2ccccc2[nH]1", "LIMIT SIGN": "<", "pIC50": 3.45}
{"RECORD SMILES": "COc1ccc(/C=N/NC(=O)c2nc3ccccc3[nH]2)cc1O", "LIMIT SIGN": "=", "pIC50": 3.87}
{"RECORD SMILES": "O=C(N/N=C/c1cccs1)c1nc2ccccc2[nH]1", "LIMIT SIGN": "=", "pIC50": 4.21}
{"RECORD SMILES": "COc1cc(/C=N/NC(=O)c2nc3ccccc3[nH]2)cc(OC)c1", "LIMIT SIGN": "=", "pIC50": 4.14}
{"RECORD SMILES": "COc1cc(/C=N/NC(=O)c2nc3ccccc3[nH]2)cc(OC)c1OC", "LIMIT SIGN": "=", "pIC50": 3.83}
{"RECORD SMILES": "COc1ccc(/C=N/NC(=O)c2nc3ccccc3[nH]2)cc1", "LIMIT SIGN": "=", "pIC50": 4.46}
{"RECORD SMILES": "CCCCCCCCCCCCCCCCOP(=O)([O-])OCC[N+](C)(C)C", "LIMIT SIGN": "=", "pIC50": 5.78}
{"RECORD SMILES": "O=C(N/N=C/c1ccc(O)c(O)c1)c1nc2ccccc2[nH]1", "LIMIT SIGN": "=", "pIC50": 4.21}
{"RECORD SMILES": "O=C(N/N=C/c1ccc2c(c1)OCO2)c1nc2ccccc2[nH]1", "LIMIT SIGN": "=", "pIC50": 4.35}
{"RECORD SMILES": "O=C(N/N=C/c1ccncc1)c1nc2ccccc2[nH]1", "LIMIT SIGN": "=", "pIC50": 3.77}
